systemTested: Mu-type opioid receptor (Homo sapiens, UniProt P35372)
Sequence (P35372 whole entry): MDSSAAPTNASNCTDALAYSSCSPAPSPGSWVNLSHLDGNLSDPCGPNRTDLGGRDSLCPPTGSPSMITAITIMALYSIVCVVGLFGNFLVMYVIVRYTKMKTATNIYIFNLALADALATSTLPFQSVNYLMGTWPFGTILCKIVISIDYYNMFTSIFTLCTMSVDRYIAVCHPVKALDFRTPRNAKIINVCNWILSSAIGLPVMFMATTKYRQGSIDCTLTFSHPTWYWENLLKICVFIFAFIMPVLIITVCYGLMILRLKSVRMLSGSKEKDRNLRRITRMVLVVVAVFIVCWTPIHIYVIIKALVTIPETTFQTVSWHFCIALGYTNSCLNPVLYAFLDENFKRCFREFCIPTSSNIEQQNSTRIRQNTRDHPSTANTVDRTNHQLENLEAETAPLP
experimentNotes: Detection of MOR cAMP Agonist Activity: The experiment was performed using a cAMP detection kit from Cisbio (Cisbio #62AM4PEJ).
pEC50: −log10 of the molar value.
Measured pEC50 by item

smilesInput | pEC50
Cc1cccc(CNCC[C@@]2(c3ccc(F)cn3)CCO[C@]3(CCOC3)C2)c1 | 10.00
c1ccc([C@]2(CCNCc3cc4c(s3)CCC4)CCOC3(CCCC3)C2)nc1 | 9.05
c1ccc([C@]2(CCNCc3scc4c3CCC4)CCO[C@]3(CCOC3)C2)nc1 | 9.33
Fc1ccc([C@]2(CCNCc3scc4c3CCC4)CCO[C@]3(CCOC3)C2)nc1 | 10.00
c1ccc([C@]2(CCN[C@H]3CCc4ccccc43)CCO[C@]3(CCOC3)C2)nc1 | 8.40
